// data source = ChEMBL document CHEMBL1135429

assayed system: Procathepsin L (Homo sapiens)
Sequence (P07711 whole entry): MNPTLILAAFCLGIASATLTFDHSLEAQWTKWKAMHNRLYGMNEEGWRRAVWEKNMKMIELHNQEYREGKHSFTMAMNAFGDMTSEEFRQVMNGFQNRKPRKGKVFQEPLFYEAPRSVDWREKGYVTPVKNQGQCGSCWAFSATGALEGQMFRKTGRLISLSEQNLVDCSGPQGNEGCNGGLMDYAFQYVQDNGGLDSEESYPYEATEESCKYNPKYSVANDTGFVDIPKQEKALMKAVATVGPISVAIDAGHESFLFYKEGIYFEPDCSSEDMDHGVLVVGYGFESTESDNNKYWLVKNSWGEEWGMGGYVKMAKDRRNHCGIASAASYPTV
procedure text: Inhibition of recombinant human cathepsin L in a fluorescence assay.
readout: pIC50
# pIC50: negative log10 of molar concentration; output just the value

Examples with their reported pIC50 follow.
[
  {
    "mol smiles": "COc1ccc(NCCNC(=O)[C@H](CC(C)C)NC(=O)c2ccc(C(C)C)cc2)cc1",
    "pIC50": 7.30
  },
  {
    "mol smiles": "COc1ccc(NCCNC(=O)[C@H](CC(C)C)NC(=O)c2ccc(C(C)C)cn2)cc1",
    "pIC50": 5.82
  }
]

Kindly consider the entry below.
-- ask Please give the measured pIC50 for this compound: `COc1ccc(NCCNC(=O)[C@H](CC(C)C)NC(=O)c2ncn(-c3ccccc3Cl)n2)cc1`
-- reply 5.64
